Sourced from the supplement of paper PMC9112550

Tested on: Escherichia coli TOP10
assay.text: shrunken log2 fold change of peptide-encoding DNA abundance (4.5 h post-induction vs induction); higher = less antimicrobial activity (less host growth inhibition)
assay.context: time post-induction: 4.5 h; library: site-saturation at positions 5, 18, 19, 20
measured.attribute: shrunken log2 fold change
When you answer, write just the number.

// known answers, use as guide
{"columns": ["residue.string", "shrunken log2 fold change"],
 "data": [
  ["RRIRKRPPRLPRPRPRPWAAPRP", 0.473],
  ["RRIRLRPPRLPRPRPRPGIQPRP", -0.0773],
  ["RRIRMRPPRLPRPRPRPQNIPRP", -0.726]
]}

Now look at this entry.
Q. Reported shrunken log2 fold change, sequence "RRIRLRPPRLPRPRPRPMLEPRP" : ____
A. 0.0968

---

System: Escherichia coli TOP10
assay.text: shrunken log2 fold change of peptide-encoding DNA abundance (4.5 h post-induction vs induction); higher = less antimicrobial activity (less host growth inhibition)
assay.context: time post-induction: 4.5 h; library: site-saturation at positions 5, 18, 19, 20
Catalogue of shrunken log2 fold change values
Output spec: single numeric token, no unit.

Worked examples follow.
{"columns": ["residue.string", "shrunken log2 fold change"],
 "data": [
  ["RRIRDRPPRLPRPRPRPHKCPRP", -0.372],
  ["RRIRGRPPRLPRPRPRPHKHPRP", 0.0984],
  ["RRIRSRPPRLPRPRPRPNPDPRP", -0.123],
  ["RRIRSRPPRLPRPRPRPEFVPRP", 0.00503],
  ["RRIRKRPPRLPRPRPRPDVSPRP", -0.382],
  ["RRIRVRPPRLPRPRPRPQYAPRP", -0.193],
  ["RRIRCRPPRLPRPRPRPKKTPRP", -0.142],
  ["RRIRQRPPRLPRPRPRPFGSPRP", -0.156],
  ["RRIRWRPPRLPRPRPRPWPFPRP", 0.481],
  ["RRIRKRPPRLPRPRPRPADRPRP", 0.102]
]}

Q. Which shrunken log2 fold change is reported for this sequence? "RRIRHRPPRLPRPRPRPRNLPRP"
A. 0.0727

Q. Fill in: shrunken log2 fold change of "RRIRMRPPRLPRPRPRPAVQPRP" is ___
A. 0.0778

Q. Entry "RRIRERPPRLPRPRPRPKGLPRP" : reported shrunken log2 fold change = ?
A. 0.0211

Q. Look at this sequence and give its reported shrunken log2 fold change. "RRIRCRPPRLPRPRPRPMPQPRP"
A. 0.202

Q. // shrunken log2 fold change lookup, key: "RRIRKRPPRLPRPRPRPMFKPRP"
A. -0.0779

---

Some sequences, each annotated with its measured shrunken log2 fold change.
System: Escherichia coli TOP10;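 note: peptides expressed intracellularly from a pBAD plasmid library in pooled LB shake-flask culture, induced with 0.3% L-arabinose, DNA abundance read by NGS, three biological replicates, DESeq2 with apeglm shrinkage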
assay.text: shrunken log2 fold change of peptide-encoding DNA abundance (4.5 h post-induction vs induction); higher = less antimicrobial activity (less host growth inhibition)
assay.context: time post-induction: 4.5 h; library: site-saturation at positions 5, 18, 19, 20
Number only, no unit.

As a guide, the following entries are already answered.
{"columns": ["residue.string", "system", "test.result"],
 "data": [
  ["RRIRNRPPRLPRPRPRPNAYPRP", "Escherichia coli TOP10", -0.0738],
  ["RRIRARPPRLPRPRPRPQVHPRP", "Escherichia coli TOP10", 0.102],
  ["RRIRFRPPRLPRPRPRPRVVPRP", "Escherichia coli TOP10", 0.298],
  ["RRIRARPPRLPRPRPRPVHKPRP", "Escherichia coli TOP10", 0.2],
  ["RRIRYRPPRLPRPRPRPASKPRP", "Escherichia coli TOP10", "-1.29e-05"],
  ["RRIRCRPPRLPRPRPRPGNRPRP", "Escherichia coli TOP10", 0.0246]
]}

Now let's try a different one.
Q. Reported shrunken log2 fold change, sequence "RRIRHRPPRLPRPRPRPSLPPRP" : ____
A. -0.328
